- testDetails: chemical genetic growth profiling, strain panel (AID 1159580);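 further: tested at 20 µM; growth read once vehicle control cultures reached saturation at 30 °C; 1 = growth at the plate median or of vehicle wells; lower values mean less growth of the strain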
- cond: S. cerevisiae deletion strains, growth OD, locus YJL187C, strain SWE1, active compounds read low
Out of some 5,500 compounds screened, about 2,000 (36%) were called active. Inconclusive results (about 18%) are left out. The list shows a part of the results.
measure: normalized growth
Field format: numeric only.

Known normalized growth results, listed for orientation:
* NC(N)=NS(=O)(=O)c1ccc(N)cc1 | 0.989
* CC1=CC2C(CC1=O)C(C)=CCC2C(C)C (stereo not drawn) | 1
* Nc1ccc(N=Nc2ccccc2)c(N)n1 | 0.727
* COc1cc2occ(-c3ccccc3)c(=O)c2c(OC)c1C | 0.976
* CC(C)COCC(CN(Cc1ccccc1)c1ccccc1)N1CCCC1 (stereo not drawn) | 1.03
* Clc1cccc(NC2=NCCS2)c1Cl | 1

Challenge: Record request: normalized growth value, item `CC(C)n1cc(C#N)c(=O)n(Cc2ccccc2)c1=O`
Response given: 0.977

Challenge: Record request: normalized growth value, item OC(CN1CCN(c2nc3ccc(Cl)cc3s2)CC1)CN1CCCN(c2ncc(C(F)(F)F)cc2Cl)CC1 (stereo not drawn)
Response given: 0.995

Challenge: Record request: normalized growth value, item `NC(=O)c1cccc(N)c1`
Response given: 0.968

Challenge: Record request: normalized growth value, item `O=C1NC(=O)C(=O)C(=O)N1`
Response given: 0.989

Challenge: Record request: normalized growth value, item `COc1ccc2c(c1)O[C@H]1c3ccc(OC)cc3OC[C@@H]21`
Response given: 1.02

Challenge: Record request: normalized growth value, item `COc1cc([C@@H]2c3cc4c(c(O)c3C[C@H]3COC(=O)[C@@H]32)OCO4)cc(OC)c1OC`
Response given: 0.983

Challenge: Record request: normalized growth value, item `Cc1onc(-c2c(F)cccc2Cl)c1C(=O)c1ccc(F)cc1`
Response given: 0.975

Challenge: Record request: normalized growth value, item O=C(C1CCCCC1)N1CC(=O)N2CCc3ccccc3C2C1 (stereo not drawn)
Response given: 1.01

Challenge: Record request: normalized growth value, item `COc1ccccc1N=C(N)SCc1ccccc1`
Response given: 1.01

Challenge: Record request: normalized growth value, item `COc1cc(OC)c2c(=O)c(-c3ccccc3)coc2c1`
Response given: 0.997

Challenge: Record request: normalized growth value, item CO[C@@]1(NC(=O)CSCC#N)C(=O)N2C(C(=O)O)=C(CSc3nnnn3C)CSC21 (stereo partly drawn)
Response given: 0.985

Challenge: Record request: normalized growth value, item `Nc1ccc(C(=O)/C(=C\c2cccc([N+](=O)[O-])c2)C(=O)c2ccc(-c3ccccc3)cc2)cc1`
Response given: 1

----------
- testDetails: chemical genetic growth profiling, strain panel (AID 1159580)
- cond: S. cerevisiae deletion strains, growth OD, locus YBR023C, strain chs3, active compounds read low
Out of some 5,500 compounds screened, about 2,000 (36%) were called active. About 18% were inconclusive and are not listed. The list shows a part of the results.
Measured normalized growth values are reported for all entries that follow.
Field format: numeric only.

Known normalized growth results, listed for orientation:
- CC[C@H](C)C(=O)O[C@H]1CCC=C2C=C[C@H](C)C(CCC3C[C@@H](O)CC(=O)O3)[C@H]21 (stereo partly specified): 1.01
- NC(N)=NS(=O)(=O)c1ccc(N)cc1: 0.981

Challenge: Record request: normalized growth value, item C[N+]1(C)C2CC(OC(=O)[C@@H](CO)c3ccccc3)CC1C1OC12 (stereo partly specified)
Response given: 0.958

Challenge: Record request: normalized growth value, item C=CCSCC1Nc2cc(Cl)c(S(N)(=O)=O)cc2S(=O)(=O)N1 (stereo unspecified)
Response given: 1

Challenge: Record request: normalized growth value, item `O=C1NC(=O)C(=O)C(=O)N1`
Response given: 0.997

Challenge: Record request: normalized growth value, item `NC(=O)c1cccc(N)c1`
Response given: 0.981

----------
- testDetails: chemical genetic growth profiling, strain panel (AID 1159580)
- cond: S. cerevisiae deletion strains, growth OD, locus YLR370C, strain arc18, active compounds read low
Among all 5,500 compounds or so, about 2,000 (36%) were called active. About 18% were inconclusive and are not listed. The list shows a part of the results.
Measured normalized growth values are reported for all entries that follow.

- CCCCN(CCCC)CCCOC(=O)c1ccc(N)cc1: 0.995 (inactive)
- COC(=O)[C@@H]1OC(=O)[C@H]2O[C@@]23[C@@]1(C)CCC1[C@@]2(C)CCC(=O)C(C)(C)C2C[C@@H](OC(C)=O)[C@]13C (stereo partly specified): 0.989 (inactive)
- CC(=O)OCC[C@H](C)CCC=C(C)C: 0.996 (inactive)
- CCN(CC)CCOC(=O)c1ccc(N)cc1: 1.01 (inactive)
- N[C@@H](CC(=O)N1CCn2c(nnc2C(F)(F)F)C1)Cc1cc(F)c(F)cc1F: 0.977 (inactive)

Consider the additional compound presented here.
Challenge: Record request: normalized growth value, item C#CCCCCCCCCCCCC(O)CC(O)COC(C)=O (stereo unspecified)
Response given: 0.994 (inactive)

----------
- testDetails: chemical genetic growth profiling, strain panel (AID 1159580);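 further: tested at 20 µM; growth read once vehicle control cultures reached saturation at 30 °C; 1 = growth at the plate median or of vehicle wells; lower values mean less growth of the strain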
- cond: S. cerevisiae deletion strains, growth OD, locus YJL128C, strain PBS2, active compounds read low
Among all 5,500 compounds or so, about 2,000 (36%) were called active. About 18% were inconclusive and are not listed. The list shows a part of the results.
Measured normalized growth values are reported for all entries that follow.
Field format: numeric only.

Known normalized growth results, listed for orientation:
- O=C(/C=C/Sc1nc2ccccc2s1)c1ccc(Cl)cc1: 0.954
- CCCCN(C)C(=O)c1cc([N+](=O)[O-])cc2c1-c1ccc([N+](=O)[O-])cc1C2=C(C#N)C#N: 0.959
- O=C(Nc1ccc(OC(F)(F)F)cc1)N1CCN(c2nc(-c3ccccc3)ns2)CC1: 0.843
- O=c1c2ccccc2[nH]c(=S)n1-c1cccc(C(F)(F)F)c1: 0.957
- Cc1onc(-c2c(Cl)cccc2Cl)c1C(=O)NC(C)(C)CC(C)(C)C: 0.945

Consider the additional molecule presented here.
Challenge: Record request: normalized growth value, item `OC(=Cc1nc2ccccc2nc1C=C(O)c1ccc(Cl)cc1)c1ccc(Cl)cc1`
Response given: 0.965

----------
- testDetails: chemical genetic growth profiling, strain panel (AID 1159580);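 further: tested at 20 µM; growth read once vehicle control cultures reached saturation at 30 °C; 1 = growth at the plate median or of vehicle wells; lower values mean less growth of the strain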
- cond: S. cerevisiae deletion strains, growth OD, locus YDR226W, strain ADK1, active compounds read low
Screen size: about 5,500 compounds; about 2,000 (36%) were called active. Another 18% or so got no clear call; they are omitted. The list shows a part of the results.
Measured normalized growth values are reported for all entries that follow.
Field format: numeric only.

Known normalized growth results, listed for orientation:
• O=c1c2ccccc2[nH]c(=S)n1-c1cccc(C(F)(F)F)c1 = 0.956
• Cc1ccc(NS(=O)(=O)c2ccc(Cl)cc2)c(N=Cc2cc(Cl)cc(Cl)c2O)c1 = 0.958
• O=C(NNc1ccc(I)cc1)c1cc(Cl)cc(Cl)c1 = 0.929
• FC(F)(F)c1cccc(-n2c(CSCc3cccc4ccccc34)n[nH]c2=S)c1 = 0.986
• Cc1cccc(NC(=S)NNC(=O)CSCc2cccc3ccccc23)c1 = 0.988

Consider the additional compound presented here.
Challenge: Record request: normalized growth value, item `Cc1c(C(=S)Nc2ccccc2)sc2ccccc12`
Response given: 0.941

----------
- testDetails: chemical genetic growth profiling, strain panel (AID 1159580);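 further: tested at 20 µM; growth read once vehicle control cultures reached saturation at 30 °C; 1 = growth at the plate median or of vehicle wells; lower values mean less growth of the strain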
- cond: S. cerevisiae deletion strains, growth OD, locus YDR195W, strain ref2
Among all 5,500 compounds or so, about 2,000 (36%) were called active. Another 18% or so got no clear call; they are omitted. This is one part of the list.
Measured normalized growth values are reported for all entries that follow.
Field format: numeric only.

• CCN(CC)C(=O)c1cccc(C)c1 = 1.11
• Oc1ccc(Cl)cc1 = 1.02
• Cc1c(S(=O)(=O)O)oc2c1C(=O)C(=O)c1c-2ccc2c1CCCC2(C)C = 0.974
• C[C@@H]1C(=O)OC2[C@H](O)C34[C@@H]5OC(=O)[C@@]3(O[C@@H]3OC(=O)[C@H](O)[C@@]34[C@H](C(C)(C)C)[C@H]5O)[C@]21O (stereo not given in full) = 0.942
• Cc1coc2c1C(=O)C(=O)c1c-2ccc2c1CCCC2(C)C = 0.989

Challenge: Record request: normalized growth value, item `N[C@@H](CC(=O)N1CCn2c(nnc2C(F)(F)F)C1)Cc1cc(F)c(F)cc1F`
Response given: 0.941

Challenge: Record request: normalized growth value, item `C[C@H]1COC2=C1C(=O)C(=O)c1c2ccc2c1CCCC2(C)C`
Response given: 0.823

Challenge: Record request: normalized growth value, item `Cc1ccc(C)c(OCCCC(C)(C)C(=O)O)c1`
Response given: 1.1

Challenge: Record request: normalized growth value, item `CC1(C)O[C@H]2[C@H](O)C[C@](O)(C(N)=O)C[C@H]2O1`
Response given: 1.01

Challenge: Record request: normalized growth value, item CC1C[C@H]2CC(=O)[C@H]3CCCN4CCC[C@H]2[C@]34C1 (stereo not given in full)
Response given: 0.993
